Test: soluble on expression in E. coli; label from the status in PepcDB or PDB records
Metric name: soluble on expression in E. coli

Consider the reported soluble on expression in E. coli for these sequences:
MSKAAKKKSSKKRSGSEAAQFDQKTIQEFKEAFGIMDQNKDGIIDKSDLKDLYASMGQIAPDSQIDAMIKEASGPINFTVFLTLFGERLTGTDPEATIVGAFAMFDKKDCGKIKEDDLIKILQNKRGEPLDEDEVKAMYKGKPPIEGGEVDYKAFAHLITTGAQDELASA = not soluble
MGHHHHHHSHMIQYIPQRPPIVMISTLVSAEKNVTETELEIPAHGLFVKDGVLHEPGLIENVAQTAAAGVGYACTLTSQPVPVGFIGAVKNLEIDYLPKVGDVLETRVEVLEEIFDMTLIKGESFVKGKRVLTCEMKIVLKK = not soluble
MTKIMIIGANGGIAKKLTQRLLAETDDELVLFLRRAERLAQYREQPRVTLIDGNVLDTDELATAMAPVDIVYSNVGGTDLAAQTKSILAAMARTQRQRLIFISALGAHHEVPGKFGAWNEQAIADFLPGFREAARLLSASELVYTEIRPAWLTDVAEIDYELTTGAEPFKGTEVSRASVADLVFKLMAHPENYQRVSLGVDEPGTAGDRPSWLLEHHHHHH = not soluble
MTIDTELTNGSSESVPFVFIGGGNMAAAIIKGCQNKGFTPKSNIVIGVQTEKSAEKWRQLGYKNVFTNTLEMLERYSTAIYVICVKPQVFEEVVSSWPVNSRPEFIISVMAGVPLKVLNAKLPFVSGNTTIVRLMPNVASSIGAGASTMCYEKNEKIMNQDSHIELAREFAECVGTVELIPERCFNPAMAIGGSSPAWTFMYIESLADGAVAQGLGRAEAKRLAAQAVLGAAQMVLNSNSGFDIETQHFGSLKDMVCSPGGTTIEGVRALEKNGFRYAVMEAVVAASTKADEMAKSLAK = soluble
TSPVNWDVTGTFSMNRTYMKKLPYNGRDKNRVQGGLVWDAKSGTYVETGGLAEGERIGGRWGYKYLGVYDTDEEAAKAPVDTKVSGSKMNKKKVAGDAIWADLDNNGVIDDKDITFIGWANPDKKGALINNLSYKNFSLRLVVDFALGHSIANIWRCRANANARNAIITTTDVTNGNIWWQTGDAATAKYPRYDVASDWDNGYRNHMRTIAYAGMNSNGNADNTAYYSKGDYLCFREVSLGYELPRSVCSKMKVKGVSLNAGVTNIGYITAFDGLNPEQYDGQETGEYFLPIQFNFGVRLTF = not soluble
MAHHHHHHMSSITGAAYSSPEYTHCIRDSRFRHNVYEPEADTFLFLDALDKDAELLRSIRPDRCVEVGCGSGAVITHLRCLLMPSVAAAATQELEAETPELCCGASGIRSAVGGPMFCAVDVNPLALEATAITWTETLLKYFRETVLAAFYERIFQSAVPTSLAAPVVLSAEGVSPPLTRVDADDPTSSALSASTFCLHRFHGDLLNALPRGNSAPALFDVVLFNPPYVPTSLKELQDAITQRDVITTAWCGGPRGRVVLDRFLRQLPSVLSRRGVCYVVLIKENNATDVVAFAQAAFREHLRCSGTETVKDEDDVLEASEVAARYTGEHLSVYRLRYVPRFQTP = not soluble

stdin: Which soluble on expression in E. coli is listed for SFWGWLNAVFNKVDHDRIRDVGPDRAASEWLLRCGAMVRYHGQQRWQKDYNHLPTGPLDKYKIQAIDATDSCIMSIGFDHMEGLQYVEKIRLCKCHYIEDGCLERLSQLENLQKSMLEMEIISCGNVTDKGIIALHHFRNLKYLFLSDLPGVKEKEKIVQAFKTSLPSLELKLDLK ?
stdout: soluble

stdin: One more sequence: MGSDKIHHHHHHMTTATQSSAPGVNVDQAEVEKFSALAARWWDPESEFKPLHAINPLRLGWIQETAGSLSGKRVLDMGCGGGILSESMAVAGAQVTGIDLAEKSLKIARLHGLESGVKVDYRAVPVEELAAEQPGQYDVVTCMEMLEHVPDPASVVRACAALAKPGGWVFFSTLNRNPKSFLFAIVGAEYVLRLLPRGTHSYDSFIKPSELATSARQAGLEPTGMRGMEYNPITQVYSLSANTSVNYLMSTRK
stdout: not soluble

stdin: One more sequence: MAHRNTYEAVLHKIQVGSPEDGNGAIRILQLSDLHLEKLSISPDDLYEKLRGEPIDFIALTGDFLDREASIPKLGPYLTALKKLQPAYGMYAVFGNHDYVLQGEPFERLKATLEEHGCIVLQNEMKTITVHGQTVNIIGIDDFYTRRSNMKKAYAGVKDGINIVLTHDPDIVPHMGAYHFDYLLSGHFHGGQIHWPKPYHLAKMSKTLTKRNMIKGYHEWEGKPFYINEGLGQTGVNIRVGSKPEVTLHLLSLPSVAQSETVKAVLEHHHHHH
stdout: soluble

stdin: One more sequence: MKAINIALDGPAAAGKSTIAKRVASELSMIYVDTGAMYRALTYKYLKLNKTEDFAKLVDQTTLDLTYKADKGQCVILDNEDVTDFLRNNDVTQHVSYVASKEPVRSFAVKKQKELAAEKGIVMDGRDIGTVVLPDADLKVYMIASVEERAERRYKDNQLRGIESNFEDLKRDIEARDQYDMNREISPLRKADDAVTLDTTGKSIEEVTDEILAMVSQIK
stdout: soluble

stdin: One more sequence: MIRFAVIGTNWITRQFVEAAHESGKYKLTAVYSRSLEQAQHFANDFSVEHLFTSLEAMAESDAIDAVYIASPNSLHFSQTQLFLSHKINVICEKPLASNLAEVDAAIACARENQVVLFEAFKTACLPNFHLLRQALPKVGKLRKVFFNYCQYSSRYQRYLDGENPNTFNPAFSNGSIMDIGFYCLASAVALFGEPKSVQATASLLASGVDAQGVVVMDYGDFSVTLQHSKVSDSVLASEIQGEAGSLVIEKLSECQKVCFVPRGSQMQDLTQPQHINTMLYEAELFATLVDEHLVDHPGLAVSRITAKLLTEIRRQTGVIFPADSVKL
stdout: soluble
